Where do these numbers come from? They come from the RepoRT retention time repository.

measurement_description: HILIC, HILICON iHILIC-(P) Classic, HILIC, PEEK, 100 × 2.1 mm, 5 µm, 40 °C, 0.15 mL/min, estimated dead time 1.5 min; A: water + 20 mM ammonium carbonate + 5 µM medronic acid; B: 10% water + 90% acetonitrile + 2 mM ammonium carbonate + 0.5 µM medronic acid; gradient (min/%B) 0/95 18/55 19/20 22/20 22.5/95 24/95 26/95
condition_info: stereoisomer not certain
test_readout: LC retention time (min)

(a) NC(=O)C1=CN(C2OC(COP(=O)(O)OP(=O)(O)OCC3OC(n4cnc5c(N)ncnc54)C(OP(=O)(O)O)C3O)C(O)C2O)C=CC1 (stereo not drawn) [NADPH]
(b) Nc1ncnc2c1ncn2C1OC(COP(=O)(O)O)C(O)C1O (stereo not drawn) [AMP]
q: Parameter check: reported LC retention time is higher for which label, a or b ? // respond with label for picked entry
a: a

(1) CC(C)(COP(=O)(O)OP(=O)(O)OCC1OC(n2cnc3c(N)ncnc32)C(O)C1OP(=O)(O)O)C(O)C(=O)NCCC(=O)NCCS (stereo not drawn) [CoenzymeA]
(2) NCCCCC(N)C(=O)O (stereo not drawn) [Lysine]
q: Form: Entry with minimum LC retention time (choose one): 1 / 2 // respond with label for picked entry
a: 1
(1: 11.6 min, 2: 18.7 min)
